The values you see were collected from patent US10233186B2.

- target under test: human ALK2 R206H (Homo sapiens, UniProt Q04771, R206H)
- Construct: expressed in transfected cells; host or cells: HEK293 (ATCC CRL1573), lentivirus transduction, blasticidin selection
- Sequence (Q04771 21-509 R206H): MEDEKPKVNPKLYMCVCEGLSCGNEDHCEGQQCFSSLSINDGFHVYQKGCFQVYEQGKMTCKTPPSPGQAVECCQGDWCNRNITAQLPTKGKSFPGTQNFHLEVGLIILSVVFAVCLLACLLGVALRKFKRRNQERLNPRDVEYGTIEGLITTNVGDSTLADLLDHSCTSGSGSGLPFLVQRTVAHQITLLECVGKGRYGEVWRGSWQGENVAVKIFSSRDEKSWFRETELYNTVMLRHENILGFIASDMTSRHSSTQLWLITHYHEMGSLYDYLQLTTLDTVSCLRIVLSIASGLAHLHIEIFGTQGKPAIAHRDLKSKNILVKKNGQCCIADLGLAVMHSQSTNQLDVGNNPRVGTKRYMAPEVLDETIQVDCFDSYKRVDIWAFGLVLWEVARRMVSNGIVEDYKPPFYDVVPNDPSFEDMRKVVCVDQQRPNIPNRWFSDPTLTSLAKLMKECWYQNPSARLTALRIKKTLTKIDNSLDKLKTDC
- experiment notes: Cell-based ALK2-R206H cell activity assay (Smad1-Ser463/Ser465 phosphorylation by AlphaLISA in HEK293-ALK2-R206H cells)
- recorded conditions: read-out: Cell Line (Cell Assay IC50)
- Procedure: A HEK293 (ATCC, Cat^# CRL1573) based stable cell line expressing human ALK2 R206H cDNA (synthesized by GeneScript, Piscataway, N.J.) and a FLAG tag at the C-terminus was generated by lentivirus transduction and subsequent blasticidin (Life Technologies, Cat^#-A1113902) selection at 10 μg/ml for >2 wks. This cell line was named HEK293-ALK2-R206H. Test compounds were first diluted to 4 mM or 0.4 mM and then serially diluted 3-fold into 10 different concentrations using DMSO. […]
pIC50: −log10 of the molar value.
measured attribute: pIC50

Consider the molecule shown here: CCOC1(c2ccc(-c3cc4c(N5CCN(C(=O)O[C@H]6CCOC6)CC5)ccnn4c3)nc2)CCN(C(C)C)CC1 [Compound 877] What is its recorded pIC50?
> 7.00

Consider the molecule shown here: O=C(C1CCC1)N1CCN(c2ccnn3cc(-c4ccc(C5(F)CCCNC5)cc4)cc23)CC1 (stereo not drawn) [Compound 229] What is its recorded pIC50?
> 7.00

Consider the molecule shown here: CC(=O)N1CC(OC(=O)N2CCN(c3ccnn4cc(-c5ccc([C@@H]6CCCN(C(C)C)C6)cc5)cc34)CC2)C1 [Compound 853] What is its recorded pIC50?
6.30 to 7.00

Consider the molecule shown here: CCOC(=O)N1CCN(c2ccnn3cc(-c4ccc(C(N)C(C)(C)O)cc4)cc23)CC1 (stereo not drawn) [Compound 764] What is its recorded pIC50?
> 7.00

Consider the molecule shown here: CC(C)NC(=O)N1CCN(c2ccnn3cc(-c4ccc([C@]5(O)CCN(C(C)C)C5)cc4)cc23)CC1 [Compound 596] What is its recorded pIC50?
6.30 to 7.00

Consider the molecule shown here: CO[C@]1(c2ccc(-c3cc4c(N5CCN(C(=O)OC6COC6)CC5)ccnn4c3)nc2)CCCNC1 [Compound 800] What is its recorded pIC50?
> 7.00

====

- target under test: human ALK2 R206H (Homo sapiens, UniProt Q04771, R206H)
- Construct: expressed in transfected cells; host or cells: HEK293 (ATCC CRL1573), lentivirus transduction, blasticidin selection
- experiment notes: Cell-based ALK2-R206H cell activity assay (Smad1-Ser463/Ser465 phosphorylation by AlphaLISA in HEK293-ALK2-R206H cells)
- recorded conditions: read-out: Cell Line (Cell Assay IC50)
pIC50: −log10 of the molar value.
measured attribute: pIC50

Look up pIC50 with human ALK2 R206H (Homo sapiens, UniProt Q04771, R206H) for this compound: CCOC1(c2ccc(-c3cc4c(N5CCN(C(=O)OC6COC6)CC5)ccnn4c3)nc2)CCN(C[C@H](C)F)CC1 [Compound 882]
> 7.00

Look up pIC50 with human ALK2 R206H (Homo sapiens, UniProt Q04771, R206H) for this compound: N#C[C@H]1CC[C@H](C(=O)N2CCN(c3ccnn4cc(-c5ccc(N6CCNCC6)cc5)cc34)CC2)CC1 [Compound 371]
> 7.00

Look up pIC50 with human ALK2 R206H (Homo sapiens, UniProt Q04771, R206H) for this compound: CC(C)N1CCC(c2ccc(-c3cc4c(N5CCN(C(=O)NCC(C)(C)C)CC5)ccnn4c3)cc2)CC1 [Compound 664]
6.30 to 7.00

Look up pIC50 with human ALK2 R206H (Homo sapiens, UniProt Q04771, R206H) for this compound: COC1(c2ccc(-c3cc4c(N5CCN(C(=O)NC(C)C)CC5)ccnn4c3)nc2)CCN(C2COC2)CC1 [Compound 714]
> 7.00

Look up pIC50 with human ALK2 R206H (Homo sapiens, UniProt Q04771, R206H) for this compound: CCNC(=O)N1CCN(c2ccnn3cc(-c4ccc([C@@H]5CNCCO5)cc4)cc23)CC1 [Compound 142]
6.30 to 7.00

Look up pIC50 with human ALK2 R206H (Homo sapiens, UniProt Q04771, R206H) for this compound: CC(C)N1CCC(c2ccc(-c3cc4c(N5CCN(C(=O)[C@H]6CC[C@H](C#N)CC6)CC5)ccnn4c3)nc2)CC1 [Compound 437]
> 7.00

====

- target under test: ALK2 R206H (GST-tagged mutant ALK2) (Homo sapiens, UniProt Q04771, R206H)
- Construct: purchased Carna Bioscience or ThermoFisher 09-148 or PV6232
- Sequence (Q04771 21-509 R206H): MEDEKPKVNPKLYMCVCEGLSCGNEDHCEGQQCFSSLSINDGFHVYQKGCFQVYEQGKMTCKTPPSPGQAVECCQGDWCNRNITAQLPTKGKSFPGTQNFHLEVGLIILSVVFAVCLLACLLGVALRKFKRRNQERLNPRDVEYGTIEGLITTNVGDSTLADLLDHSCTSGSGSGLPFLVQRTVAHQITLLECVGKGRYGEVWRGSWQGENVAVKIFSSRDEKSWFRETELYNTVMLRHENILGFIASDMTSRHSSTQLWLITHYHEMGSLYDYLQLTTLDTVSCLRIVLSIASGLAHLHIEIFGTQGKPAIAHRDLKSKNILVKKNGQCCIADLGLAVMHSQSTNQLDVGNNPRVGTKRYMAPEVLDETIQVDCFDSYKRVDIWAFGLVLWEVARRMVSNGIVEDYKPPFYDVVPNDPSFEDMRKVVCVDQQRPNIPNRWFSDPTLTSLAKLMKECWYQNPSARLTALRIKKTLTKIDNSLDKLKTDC
- experiment notes: ALK binding assay (LANTHASCREEN TR-FRET competitive binding, displacement of Kinase Tracer 178)
- recorded conditions: ALK2 R206H, LANTHASCREEN TR-FRET competitive binding; read-out: Binding Assay (IC50)
pIC50: −log10 of the molar value.
measured attribute: pIC50

Consider the compound shown here: CCC(=O)N1CCN(c2ccnn3cc(-c4ccc(N5CCN(CC)CC5)cc4)cc23)CC1 [Compound 173] What is its recorded pIC50?
7.30 to 8.00

Consider the compound shown here: O=C(C1CC1)N1CCN(c2ccnn3cc(-c4ccc(N5CCNCC5=O)cc4)cc23)CC1 [Compound 151] What is its recorded pIC50?
< 7.30

Consider the compound shown here: CCNC(=O)N1CCN(c2ccnn3cc(-c4ccc(C5(O)CCCN(C(C)C)C5)cc4)cc23)CC1 (stereo not drawn) [Compound 351] What is its recorded pIC50?
> 8.00

====

- target under test: human ALK2 R206H (Homo sapiens, UniProt Q04771, R206H)
- Construct: expressed in transfected cells; host or cells: HEK293 (ATCC CRL1573), lentivirus transduction, blasticidin selection
- experiment notes: Cell-based ALK2-R206H cell activity assay (Smad1-Ser463/Ser465 phosphorylation by AlphaLISA in HEK293-ALK2-R206H cells)
- recorded conditions: read-out: Cell Line (Cell Assay IC50)
measured attribute: IC50

Consider the compound shown here: `COC1(c2ccc(-c3cc4c(N5CCN(C(=O)NC(C)C)CC5)ccnn4c3)cc2)CCN([C@H](C)COC(F)F)CC1` What is its recorded IC50?
< 100 nM

Consider the compound shown here: `CCO[C@]1(c2ccc(-c3cc4c(N5CCN(C(=O)OC6COC6)CC5)ccnn4c3)cc2)CCCNC1` What is its recorded IC50?
< 100 nM

Consider the compound shown here: CCNC(=O)N1CCN(c2ccnn3cc(-c4ccc(C5CN(C(C)C)CCN5)cc4)cc23)CC1 (centres unmarked) What is its recorded IC50?
< 100 nM

Consider the compound shown here: `CCN1CCN(c2ccc(-c3cc4c(N5CCN(C(=O)C6CC6)CC5)ccnn4c3)cc2)CC1(C)C` What is its recorded IC50?
100 to 500 nM

Consider the compound shown here: `CC(C)N1CCC[C@@H]1c1ccc(-c2cc3c(N4CCN(C(=O)C5CC5)CC4)ccnn3c2)cn1` What is its recorded IC50?
< 100 nM
